target: T1, N1 binding to cell surface expressed hJ1 (Homo sapiens, UniProt P78504); test: Notch binding blocking assay (FACS): N1 EGF11-13 beads staining human J1-expressing cells; set-up: key: +: Complete blocking; X: No blocking; conditions: final antibody concentration 0.2 μg/ml
T1 construct: cell expressed full length human J1 (hJ1; HEK293 transfectants); expressed in transfected cells; host or cells: HEK293
T1 sequence (P78504 34-1218): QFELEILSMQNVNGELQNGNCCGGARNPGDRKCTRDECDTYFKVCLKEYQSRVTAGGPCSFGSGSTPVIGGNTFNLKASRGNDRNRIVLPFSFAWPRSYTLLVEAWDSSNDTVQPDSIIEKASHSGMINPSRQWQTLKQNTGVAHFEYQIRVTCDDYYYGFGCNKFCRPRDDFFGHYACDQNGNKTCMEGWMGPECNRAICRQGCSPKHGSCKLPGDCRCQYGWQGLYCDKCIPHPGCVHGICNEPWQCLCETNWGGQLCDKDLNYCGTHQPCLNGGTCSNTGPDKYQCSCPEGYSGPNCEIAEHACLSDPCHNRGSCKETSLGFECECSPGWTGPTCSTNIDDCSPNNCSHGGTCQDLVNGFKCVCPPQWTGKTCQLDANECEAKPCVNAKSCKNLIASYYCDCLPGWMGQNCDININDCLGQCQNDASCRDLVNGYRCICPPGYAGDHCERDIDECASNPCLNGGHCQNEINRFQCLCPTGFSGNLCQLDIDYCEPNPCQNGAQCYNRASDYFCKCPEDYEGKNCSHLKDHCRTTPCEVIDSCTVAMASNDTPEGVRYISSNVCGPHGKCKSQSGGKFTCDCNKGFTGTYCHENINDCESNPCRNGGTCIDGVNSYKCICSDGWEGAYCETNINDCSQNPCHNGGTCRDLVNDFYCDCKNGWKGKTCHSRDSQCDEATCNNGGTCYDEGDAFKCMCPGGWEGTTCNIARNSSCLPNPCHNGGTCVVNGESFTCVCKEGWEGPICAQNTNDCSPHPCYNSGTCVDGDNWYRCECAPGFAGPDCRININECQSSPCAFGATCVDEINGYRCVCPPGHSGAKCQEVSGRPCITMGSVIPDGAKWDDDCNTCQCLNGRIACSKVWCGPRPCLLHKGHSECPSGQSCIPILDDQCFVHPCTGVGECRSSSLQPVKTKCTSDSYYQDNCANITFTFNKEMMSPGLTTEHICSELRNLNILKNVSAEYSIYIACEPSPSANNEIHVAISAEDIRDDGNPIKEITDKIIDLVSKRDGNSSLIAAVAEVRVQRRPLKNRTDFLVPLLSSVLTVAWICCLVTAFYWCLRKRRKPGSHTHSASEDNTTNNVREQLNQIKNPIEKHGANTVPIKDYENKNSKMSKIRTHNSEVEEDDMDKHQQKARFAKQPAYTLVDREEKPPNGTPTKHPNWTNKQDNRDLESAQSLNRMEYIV
reported.metric: Blocking of Notch1 binding to cell surface Jagged 1

>>> result("J1-65D variant 1: humanised/de-immunised J1-65D: J1-65D_VL_1 + J1-65D_VH_1 (antibody, V domains shown) VH: QVQLVQSGAELKKPGSSVKVSCKASGYTFTDYEMHWVRQAPGQGLEWMGAIQPGGGGTAYNQKFKGRVTLTADKSTSTAYMELSSLRSEDTAVYYCTRRGYDDYPFAYWGQGTLVTVSSASTKGP VL: DIQMTQSPSSLSASVGDRVTITCRASGNIHNYLAWYQQKPGKAPKLLIYNAKTLADDVPSRFSGSGSGTDYTLTISSLQPEDFATYYCQHFWSAPWTFGGGTKLEIKRT")
"X"
>>> result("J1-183D variant 1: humanised/de-immunised J1-183D: J1-183D_VL_1 + J1-183D_VH_1 (antibody, V domains shown) VH: QVQLVQSGAELKKPGASVKVSCKVSGYAFTDYAIHWIRQAPGQGLEWMGIINTYYGDSKYNQKFKDRVTMTVDKSTSTAYMELSSLRSEDTAVYYCARGYDGFAYWGQGTLVTVSSASTKGP VL: DIQMTQSPSSLSASVGDRVTITCRTSENIYSYLTWYQQKPGKAPKLLVYNAKILAAGVPSRFSGSGSGTDFTLTISSLQPEDFATYYCQHHYDIPWTFGGGTKLEIKRT")
"X"
